# System: E. coli HB101/pPAP5 (agglutination of human erythrocytes)
# Method description: Inhibition of haemagglutination (HA inhibition) of human erythrocytes by E. coli
# Format: cell-based
# Stated conditions: Table 1; ΔΔG°=RTlnKrel, Krel = IC50 ratio to compound 1
Attribute measured: ΔΔG^o

{"Compound": "CO[C@@H]1O[C@H](CO)[C@H](O[C@H]2O[C@H](CO)[C@H](F)[C@H](O)[C@H]2O)[C@H](O)[C@H]1O [Compound 13]", "Attribute measured": "ΔΔG^o", "Data value": "1.6 kcal/mol"}
{"Compound": "CO[C@@H]1O[C@H](C)[C@H](O[C@H]2O[C@H](CO)[C@H](O)[C@H](O)[C@H]2O)[C@H](O)[C@H]1O [Compound 4]", "Attribute measured": "ΔΔG^o", "Data value": "1.7 kcal/mol"}
{"Compound": "CO[C@@H]1O[C@H](CO)[C@H](O[C@@H]2C[C@@H](O)[C@@H](O)[C@@H](CO)O2)[C@H](O)[C@H]1O [Compound 5]", "Attribute measured": "ΔΔG^o", "Data value": "1.43 kcal/mol"}
{"Compound": "CO[C@@H]1O[C@H](CO)[C@H](O[C@H]2O[C@H](CO)[C@H](O)[C@H](O)[C@H]2O)C[C@H]1O [Compound 3]", "Attribute measured": "ΔΔG^o", "Data value": "0.932 kcal/mol"}

====

# Test system: E. coli HB101/pPAP5 (agglutination of human erythrocytes)
# Method description: Inhibition of haemagglutination (HA inhibition) of human erythrocytes by E. coli
# Type: cell-based
# Stated conditions: Table 1; ΔΔG°=RTlnKrel, Krel = IC50 ratio to compound 1
Overview of reported ΔΔG^o across a group of compounds:

{"Compound": "CO[C@@H]1O[C@H](CO)[C@H](O[C@H]2O[C@H](CO)[C@H](O)C[C@H]2O)[C@H](O)[C@H]1O", "Tgt": "E. coli HB101/pPAP5 (agglutination of human erythrocytes)", "ΔΔG^o": "1.96 kcal/mol"}
{"Compound": "CO[C@H]1C[C@@H](O)[C@@H](O[C@H]2O[C@H](CO)[C@H](O)[C@H](O)[C@H]2O)[C@@H](CO)O1", "Tgt": "E. coli HB101/pPAP5 (agglutination of human erythrocytes)", "ΔΔG^o": "0.335 kcal/mol"}
{"Compound": "CO[C@@H]1O[C@H](CO)[C@H](O[C@H]2O[C@H](C)[C@H](O)[C@H](O)[C@H]2O)[C@H](O)[C@H]1O", "Tgt": "E. coli HB101/pPAP5 (agglutination of human erythrocytes)", "ΔΔG^o": "1.63 kcal/mol"}
{"Compound": "COC[C@H]1O[C@@H](OC)[C@H](O)[C@@H](O)[C@H]1O[C@H]1O[C@H](CO)[C@H](O)[C@H](O)[C@H]1O", "Tgt": "E. coli HB101/pPAP5 (agglutination of human erythrocytes)", "ΔΔG^o": "> 2.63 kcal/mol"}
{"Compound": "CO[C@@H]1O[C@H](CO)[C@H](O[C@H]2O[C@H](CO)C[C@H](O)[C@H]2O)[C@H](O)[C@H]1O", "Tgt": "E. coli HB101/pPAP5 (agglutination of human erythrocytes)", "ΔΔG^o": "2.2 kcal/mol"}
{"Compound": "CO[C@@H]1O[C@H](CO)[C@H](O[C@H]2O[C@H](CO)[C@H](O)[C@H](OC)[C@H]2O)[C@H](O)[C@H]1O", "Tgt": "E. coli HB101/pPAP5 (agglutination of human erythrocytes)", "ΔΔG^o": "-0.43 kcal/mol"}
{"Compound": "CO[C@@H]1O[C@H](CO)[C@H](O[C@H]2O[C@H](CO)[C@H](O)[C@H](O)[C@H]2O)[C@H](OC)[C@H]1O", "Tgt": "E. coli HB101/pPAP5 (agglutination of human erythrocytes)", "ΔΔG^o": "1.17 kcal/mol"}
{"Compound": "CO[C@@H]1O[C@H](CF)[C@H](O[C@H]2O[C@H](CO)[C@H](O)[C@H](O)[C@H]2O)[C@H](O)[C@H]1O", "Tgt": "E. coli HB101/pPAP5 (agglutination of human erythrocytes)", "ΔΔG^o": "2.15 kcal/mol"}
{"Compound": "CO[C@@H]1O[C@H](CO)[C@H](O[C@H]2O[C@H](CO)[C@H](O)[C@H](O)[C@H]2O)[C@H](C)[C@H]1O", "Tgt": "E. coli HB101/pPAP5 (agglutination of human erythrocytes)", "ΔΔG^o": "0.382 kcal/mol"}
{"Compound": "CO[C@@H]1O[C@H](CO)[C@H](O[C@H]2O[C@H](CO)[C@H](O)[C@H](O)[C@H]2O)[C@H](O)[C@H]1O [Compound 1, Galα1-4GalβOMe, reference compound]", "Tgt": "E. coli HB101/pPAP5 (agglutination of human erythrocytes)", "ΔΔG^o": "0 kcal/mol"}
{"Compound": "CO[C@@H]1O[C@H](CO)[C@H](O[C@H]2O[C@H](CO)[C@@H](O)[C@H](O)[C@H]2O)[C@H](O)[C@H]1O", "Tgt": "E. coli HB101/pPAP5 (agglutination of human erythrocytes)", "ΔΔG^o": "1.82 kcal/mol"}
{"Compound": "CC[C@@H]1[C@@H](O)[C@H](OC)O[C@H](CO)[C@@H]1O[C@H]1O[C@H](CO)[C@H](O)[C@H](O)[C@H]1O", "Tgt": "E. coli HB101/pPAP5 (agglutination of human erythrocytes)", "ΔΔG^o": "1.65 kcal/mol"}
{"Compound": "CO[C@@H]1O[C@H](CO)[C@H](O[C@H]2O[C@H](CF)[C@H](O)[C@H](O)[C@H]2O)[C@H](O)[C@H]1O", "Tgt": "E. coli HB101/pPAP5 (agglutination of human erythrocytes)", "ΔΔG^o": "0.323 kcal/mol"}
